# ASSAY TARGET: T1, LexR (Lysobacter antibioticus OH13, UniProt A0A0S2F3V0 1-384)
# T1 sequence: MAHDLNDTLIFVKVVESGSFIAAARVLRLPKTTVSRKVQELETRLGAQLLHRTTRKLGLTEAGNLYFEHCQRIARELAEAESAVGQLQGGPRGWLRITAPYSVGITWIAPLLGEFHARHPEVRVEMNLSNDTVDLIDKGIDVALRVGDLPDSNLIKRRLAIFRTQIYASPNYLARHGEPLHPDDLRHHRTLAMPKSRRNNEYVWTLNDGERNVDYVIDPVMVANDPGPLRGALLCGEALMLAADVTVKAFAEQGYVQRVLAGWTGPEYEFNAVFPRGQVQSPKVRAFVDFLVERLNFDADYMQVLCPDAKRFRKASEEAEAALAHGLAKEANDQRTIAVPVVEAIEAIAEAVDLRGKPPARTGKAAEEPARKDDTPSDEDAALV
# MEASUREMENT NOTES: EMSA; EMSA (LightShift kit): 1x binding buffer, 50 ng/uL poly(dI-dC), 2.5% glycerol, 5 mM MgCl (so in the source), 0.05% NP-40, 5 fmol labeled probe in 20 uL, 30 min, room
# SETTINGS: protein: recombinant; tags: His6 (pET-28a, BamHI/EcoRI); chain copies: 2; label: 5' biotin; blunt
MEASUREMENT LABEL: binding result

>>> assay_result("probe 1 (58 bp) (dsDNA) DNA 1: ACTTGATTAGCCACTGATTCAGGGAATAATTGTCCCGACATCGGGCCAATGCCCTCTC DNA 2: GAGAGGGCATTGGCCCGATGTCGGGACAATTATTCCCTGAATCAGTGGCTAATCAAGT")
"binds"
>>> assay_result("probe 4 (probe 3 with putative LexR site) (dsDNA) DNA 1: GGCTCCGCGCCTGCCAGCATAATTGTTCGTTGTCTGGGGGCTAGGGCGAGACACCCGC DNA 2: GCGGGTGTCTCGCCCTAGCCCCCAGACAACGAACAATTATGCTGGCAGGCGCGGAGCC")
"no binding"
>>> assay_result("probe 2 (50 bp, 8-bp site deleted) (dsDNA) DNA 1: ACTTGATTAGCCACTGATTCAGGGACCCGACATCGGGCCAATGCCCTCTC DNA 2: GAGAGGGCATTGGCCCGATGTCGGGTCCCTGAATCAGTGGCTAATCAAGT")
"no binding"
>>> assay_result("control probe (158 bp) (dsDNA) DNA 1: ATGCGCCTCGCGATCAACACGGTCGCATCCCCTCTTTGCCAGCCACGGCTCCGCGCCTGCCAGCTTCTTTTTTCGTTGTCTGGGGGCTAGGGCGAGACACCCGCATACCGATGACTTCGTCGGCAGTGGCCCAAGACGGATTGCGTAGTGCGCCTACG DNA 2: CGTAGGCGCACTACGCAATCCGTCTTGGGCCACTGCCGACGAAGTCATCGGTATGCGGGTGTCTCGCCCTAGCCCCCAGACAACGAAAAAAGAAGCTGGCAGGCGCGGAGCCGTGGCTGGCAAAGAGGGGATGCGACCGTGTTGATCGCGAGGCGCAT")
"no binding"
